Test: chemical genetic growth profiling, strain panel (AID 1159580);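 also: tested at 20 µM; growth read once vehicle control cultures reached saturation at 30 °C; 1 = growth at the plate median or of vehicle wells; lower values mean less growth of the strain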
Conditions: S. cerevisiae deletion strains, growth OD, locus YNL298W, strain CLA4, hits give low values
Screen size: about 5,500 compounds; about 2,000 (36%) were called active. Inconclusive results (about 18%) are left out. The list shows a part of the results.
Reported normalized growth by item:
Could you keep your reply to the number by itself?

Some solved cases for reference:
C=CCCCCCCCCCCCC(O)CC(O)CO (stereo not drawn); 0.907
COc1c2c(cc3c1OCO3)CC[N+](C)=C2; 0.992
CCC(/C=C/[C@@H](C)[C@H]1CCC2C3CC=C4C[C@@H](O)CC[C@]4(C)C3CC[C@@]21C)C(C)C (stereo partly drawn); 1

The reported value for CC1NC(=O)NC1=O (stereo not drawn) in terms of normalized growth is 1.02

The reported value for COc1ccc(-c2cc(=O)c3ccccc3o2)cc1 in terms of normalized growth is 0.881

The reported value for CC(C)Oc1ccc2c(=O)cc(-c3ccccc3)oc2c1 in terms of normalized growth is 0.538

The reported value for Cn1c(=O)c2[nH]c(C3CCCC3)nc2n(C)c1=O in terms of normalized growth is 0.998

The reported value for NS(=O)(=O)c1cc2c(cc1C(F)(F)F)NCNS2(=O)=O in terms of normalized growth is 0.983

The reported value for O=c1[nH]c2cc(Cl)c(Cl)cc2[nH]c1=O in terms of normalized growth is 1.03

The reported value for Nc1ccc(C(=O)O)c(O)c1 (tested in a mixture with another compound) in terms of normalized growth is 0.983

The reported value for CC(=O)Nc1ccc(O)cc1 in terms of normalized growth is 0.897

The reported value for CN1CCc2c(c3ccccc3n2Cc2ccccc2)C1 in terms of normalized growth is 1

The reported value for CC(=O)Nc1cccc(O)c1 in terms of normalized growth is 0.978

The reported value for Nc1ccc(C(=O)O)c(O)c1 in terms of normalized growth is 0.989

The reported value for CC(=O)[C@H]1CCC2C3CC=C4C[C@@H](O)CC[C@]4(C)C3CC[C@@]21C (stereo partly drawn) in terms of normalized growth is 0.999

The reported value for O=C(O)c1nc2cc(Cl)c(Cl)cc2[nH]c1=O in terms of normalized growth is 0.993

The reported value for CC1(C)O[C@@H]2CC3C4C[C@H](F)C5=CC(=O)C=C[C@]5(C)[C@@]4(F)[C@@H](O)C[C@]3(C)[C@]2(C(=O)CO)O1 (stereo partly drawn) in terms of normalized growth is 1.01

The reported value for O=C1c2c(O)ccc(O)c2C(=O)c2c(NCCNCCO)ccc(NCCNCCO)c21 in terms of normalized growth is 0.989

The reported value for COc1ccc(-c2cc(=O)c3c(OC)cccc3o2)cc1 in terms of normalized growth is 0.98

The reported value for CC(=O)Nc1ccc(OC(=O)c2ccccc2O)cc1 in terms of normalized growth is 0.925
